Tested on: KM12
protocol.description: NCI tumour cell line growth inhibition, 48 h
Activity calls are given as the source filed them. No stated cut-off is given here; in the data, active = GI50 up to about 1.1 µM and inactive = higher.
Outcome codes: active, inactive

compound	label.class
CC[C@H]1CN2CCc3cc(OC)c(OC)cc3[C@@H]2C[C@@H]1C[C@H]1NCCc2c1[nH]c1ccc(O)cc21	active
CCC/C(=N\NC(=S)N1CC2CCC(CC2)C1)c1ccccn1	active
COc1cc(O)c2c(=O)c(OC)c(-c3ccc(OC)c(O)c3)oc2c1	inactive
N#Cc1c(-c2ccccc2)cc(-c2ccc(Cl)cc2)[nH]c1=S	inactive
Cc1c(/C=N/NC(=S)Nc2ccccc2)c(=O)n(-c2ccccc2)n1C	inactive
CN(CCc1ccc(Br)cc1)CCN1CCCCC1	inactive
CCOC(=O)C(=O)/C(=C/N1C(=O)CC(=O)NC1=S)C(=O)OCC	inactive
CC1=C(C(=O)OC23CC4CC(CC(C4)C2)C3)C(c2ccccc2OC(F)F)C(C(=O)OC23CC4CC(CC(C4)C2)C3)=C(C)N1 (centres undefined)	inactive
CC(C)(O)[C@@H]1CC[C@](C)(C2[C@@H](O)C[C@@]3(C)C4C[C@H](OC5OCC(O)C(O)C5O)[C@H]5C(C)(C)[C@@H](OC6OCC(O)C(O)C6OC6OCC(O)C(O)C6O)CC[C@@]56C[C@@]46CC[C@]23C)O1 (some centres undefined)	inactive
COc1cc2c(cc1OC)C1C3CCCCC3CCN1CC2 (centres undefined)	inactive
CCNCCCCNCCCCNCCCCNCCCCNCC	inactive
CC1=NN2C(c3ccc([N+](=O)[O-])cc3)=CSC2=NC(C)(C)C1	inactive
N#CC12CC(C=O)=C(N)C1(C#N)CC(C=O)=C2N (centres undefined)	inactive
CCCCS(=O)(=O)CCC(N)P(=O)(O)O (centres undefined)	inactive
NC(=O)c1ncn(CCN2CCN(C(=O)NCCCCCCNC(=O)N3CCN(CCn4cnc(C(N)=O)c4N)CC3)CC2)c1N	inactive
COc1ccc(OC2OC(CO)C(OCc3ccccc3)C(OCc3ccccc3)C2OCc2ccccc2)cc1 (centres undefined)	inactive
CCN(CC)CC(O)CNc1ccc(NCC(O)CCl)c2c1C(=O)c1ccccc1C2=O (centres undefined)	inactive
N#Cc1nc2ccccc2nc1N1CCN(c2ccc([N+](=O)[O-])cc2)CC1	inactive
CC(C)NCCCNc1c2ccccc2nc2cccc([N+](=O)[O-])c12	active
